- Tested on: primary MCL patient cells (S063)
- ASSAY OVERVIEW: viability relative to DMSO control (fraction); higher = less drug effect (more viable cells)
- PARTICULARS: 0.12 µM; 48 h
REPORTED PROPERTY: viability
# answer = number (no unit)

Solved entries (count: 3):
Nc1ncn([C@H]2C[C@H](O)[C@@H](CO)O2)c(=O)n1 [Decitabine (Dacogen)] :: 0.985
Cc1cc(Nc2ncc(Cl)c(Nc3ccccc3S(=O)(=O)C(C)C)n2)c(OC(C)C)cc1C1CCNCC1 [Ceritinib] :: 0.946
Oc1ccc(/C=C/c2cc(O)cc(O)c2)cc1 [Resveratrol] :: 0.858

Alright, here's another compound for you.
-- ask Form field: reported viability of O=C(c1cc(Cc2n[nH]c(=O)c3ccccc23)ccc1F)N1CCN(C(=O)C2CC2)CC1 [Olaparib]
-- reply 0.936

###

- System: primary AML patient cells (S019)
- ASSAY OVERVIEW: viability relative to DMSO control (fraction); higher = less drug effect (more viable cells)
- PARTICULARS: 3 µM; 48 h
REPORTED PROPERTY: viability
# answer = number (no unit)

N#CC[C@H](C1CCCC1)n1cc(-c2ncnc3[nH]ccc23)cn1 [Ruxolitinib] :: 0.849

-- ask So what does the record say about viability for O=C(Nc1cccc(C(F)(F)F)c1)Nc1cc(S(=O)(=O)NC2CC2)ccc1-c1ccsc1 [AGI-6780] ?
-- reply 1.13

-- ask Let us now turn to Nc1nc(Cl)nc2c1ncn2[C@@H]1O[C@H](CO)[C@@H](O)[C@@H]1F [Clofarabine]
-- reply 0.431

-- ask Quick one: CNC(=O)c1cc(Oc2ccc(NC(=O)Nc3ccc(Cl)c(C(F)(F)F)c3)cc2)ccn1 [Sorafenib]
-- reply 1.11

-- ask Try this compound next: Nc1ncn([C@H]2C[C@H](O)[C@@H](CO)O2)c(=O)n1 [Decitabine (Dacogen)]
-- reply 0.684

###

Form field: viability (one value per entry).
- Tested on: primary AML patient cells (S081)
- ASSAY OVERVIEW: viability relative to DMSO control (fraction); higher = less drug effect (more viable cells)
- PARTICULARS: 0.12 µM; 48 h
The response must contain the number and no unit.

// solved cases for viability follow
O=C(c1cc(Cc2n[nH]c(=O)c3ccccc23)ccc1F)N1CCN(C(=O)C2CC2)CC1 :: 0.858
N#Cc1ccnc(N2C(=O)CC[C@H]2C(=O)N(c2cncc(F)c2)[C@H](C(=O)NC2CC(F)(F)C2)c2ccccc2Cl)c1 :: 1.01
N#CC[C@H](C1CCCC1)n1cc(-c2ncnc3[nH]ccc23)cn1 :: 0.9

-- ask Suppose we examine the compound `O=C(O)CSc1cc(NS(=O)(=O)c2ccc(Br)cc2)c2ccccc2c1O` ; what viability value has been reported?
-- reply 0.984

###

Known viability of a selection of compounds
- Test system: primary AML patient cells (S002)
- ASSAY OVERVIEW: viability relative to DMSO control (fraction); higher = less drug effect (more viable cells)
- PARTICULARS: 15 µM; 48 h
Give only the figure.

CCc1nc(C(N)=O)c(Nc2ccc(N3CCC(N4CCN(C)CC4)CC3)c(OC)c2)nc1NC1CCOCC1 :: 0.456
O=C(O)CSc1cc(NS(=O)(=O)c2ccc(Br)cc2)c2ccccc2c1O :: 1.03

-- ask Param readout= viability; system= primary AML patient cells (S002); entry= `CNC(=O)c1cc(Oc2ccc(NC(=O)Nc3ccc(Cl)c(C(F)(F)F)c3)cc2)ccn1` ; returns value.
-- reply 0.601

-- ask What would you report for `Nc1ncn([C@H]2C[C@H](O)[C@@H](CO)O2)c(=O)n1` ?
-- reply 0.903

-- ask Also `Cc1cc(Nc2ncc(Cl)c(Nc3ccccc3S(=O)(=O)C(C)C)n2)c(OC(C)C)cc1C1CCNCC1` ?
-- reply 0.0299

###

- System: primary AML patient cells (S079)
- ASSAY OVERVIEW: viability relative to DMSO control (fraction); higher = less drug effect (more viable cells)
- PARTICULARS: 3 µM; 48 h
Measured viability by item
Field format: numeric only.

Nc1nc(Cl)nc2c1ncn2[C@@H]1O[C@H](CO)[C@@H](O)[C@@H]1F [Clofarabine] :: 0.139
O=C(Nc1cccc(C(F)(F)F)c1)Nc1cc(S(=O)(=O)NC2CC2)ccc1-c1ccsc1 [AGI-6780] :: 0.887
CNC(=O)c1cc(Oc2ccc(NC(=O)Nc3ccc(Cl)c(C(F)(F)F)c3)cc2)ccn1 [Sorafenib] :: 1.1

-- ask Lookup: viability / primary AML patient cells (S079) / N#Cc1ccnc(N2C(=O)CC[C@H]2C(=O)N(c2cncc(F)c2)[C@H](C(=O)NC2CC(F)(F)C2)c2ccccc2Cl)c1 [AG-120]
-- reply 0.959

-- ask Please do the same for C[C@@H](Oc1cc(-c2cnn(C3CCNCC3)c2)cnc1N)c1c(Cl)ccc(F)c1Cl [Crizotinib] as well.
-- reply 0.659

-- ask And then Cc1cc(Nc2ncc(Cl)c(Nc3ccccc3S(=O)(=O)C(C)C)n2)c(OC(C)C)cc1C1CCNCC1 [Ceritinib] , what is it?
-- reply 0.738

-- ask Continue with O=C(c1cc(Cc2n[nH]c(=O)c3ccccc23)ccc1F)N1CCN(C(=O)C2CC2)CC1 [Olaparib]
-- reply 0.893

###

- System: primary AML patient cells (S055)
- ASSAY OVERVIEW: viability relative to DMSO control (fraction); higher = less drug effect (more viable cells)
- PARTICULARS: 0.2 µM; 48 h
API: label(entry) gives yes if the entry's viability is strictly smaller than 0.9; on equality or larger values it gives no.

Example results:
CC(C)(C)C[C@@H]1N[C@@H](C(=O)N[C@H]2CC[C@H](O)CC2)[C@H](c2cccc(Cl)c2F)[C@]12C(=O)Nc1cc(Cl)ccc12 [MI-773] :: no
Nc1ccc2ncnc(NCCc3ccc(Oc4ccccc4)cc3)c2c1 [EVP4593] :: yes
O=C1c2c(O)ccc(O)c2C(=O)c2c(NCCNCCO)ccc(NCCNCCO)c21 [Mitoxantrone] :: yes

// switching to the query compound
-- ask Item CC(C)C[C@H](NC(=O)CNC(=O)c1cc(Cl)ccc1Cl)B(O)O [Ixazomib] : viability beneath 0.9, strictly?
-- reply no

###

- System: primary MCL patient cells (S053)
- ASSAY OVERVIEW: viability relative to DMSO control (fraction); higher = less drug effect (more viable cells)
- PARTICULARS: 0.04 µM; 48 h
REPORTED PROPERTY: viability
Respond using a number only.

COc1cccc2c1C(=O)c1c(O)c3c(c(O)c1C2=O)C[C@@](O)(C(=O)CO)C[C@@H]3O[C@H]1C[C@H](N)[C@H](O)[C@H](C)O1 [Doxorubicin] :: 0.448

-- ask Fill in: viability of C/C=C1\NC(=O)[C@H]2CSSCC/C=C/[C@H](CC(=O)N[C@H](C(C)C)C(=O)N2)OC(=O)[C@H](C(C)C)NC1=O [Romidepsin] is ___
-- reply 0.0845

-- ask What do you have for CC(C)(C)C[C@@H]1N[C@@H](C(=O)N[C@H]2CC[C@H](O)CC2)[C@H](c2cccc(Cl)c2F)[C@]12C(=O)Nc1cc(Cl)ccc12 [MI-773] ?
-- reply 0.915

-- ask How about this compound: CC(C)C[C@H](NC(=O)CNC(=O)c1cc(Cl)ccc1Cl)B(O)O [Ixazomib]
-- reply 0.954

###

- Test system: primary MCL patient cells (S053)
- ASSAY OVERVIEW: viability relative to DMSO control (fraction); higher = less drug effect (more viable cells)
- PARTICULARS: 0.6 µM; 48 h
Please assign NO whenever viability is at or above 0.8, and YES whenever it is below.

CS(=O)(=O)c1ccc(C(=O)Nc2ccc(Cl)c(-c3ccccn3)c2)c(Cl)c1 :: NO

-- ask Is viability strictly under 0.8 for the entry `Nc1nc(Cl)nc2c1ncn2[C@@H]1O[C@H](CO)[C@@H](O)[C@@H]1F` ?
-- reply YES

-- ask Also `O=C(c1cc(Cc2n[nH]c(=O)c3ccccc23)ccc1F)N1CCN(C(=O)C2CC2)CC1` , if possible.
-- reply NO

-- ask Thanks! And `CCc1nc(C(N)=O)c(Nc2ccc(N3CCC(N4CCN(C)CC4)CC3)c(OC)c2)nc1NC1CCOCC1` ?
-- reply YES

###

- System: primary FL patient cells (S022)
- ASSAY OVERVIEW: viability relative to DMSO control (fraction); higher = less drug effect (more viable cells)
- PARTICULARS: 0.08 µM; 48 h
REPORTED PROPERTY: viability

CN1CC[C@H](c2c(O)cc(O)c3c(=O)cc(-c4ccccc4Cl)oc23)[C@H](O)C1 :: 0.995
Nc1nc(F)nc2c1ncn2[C@@H]1O[C@H](CO)[C@@H](O)[C@@H]1O :: 1.01
O=C(Nc1nc2ccccc2n1CCN1CCOCC1)c1cccc([N+](=O)[O-])c1 :: 0.974

-- ask Fill in the blank: the reported viability of `CC(C)c1cc(-c2n[nH]c(=O)n2-c2ccc3c(ccn3C)c2)c(O)cc1O` is ____.
-- reply 0.833

-- ask Then this molecule: `Cc1sc2c(c1C)C(c1ccc(Cl)cc1)=N[C@@H](CC(=O)Nc1ccc(O)cc1)c1nnc(C)n1-2`
-- reply 0.971
